assay: Cell Viability - LYMP2-021 (AID 974); conditions: LYMP2-021 lymphoblastoid cells viability; series mostly up to 92.2 µM;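 also: compound exposure lasts 24 hours at 37 °C; % is scaled to controls: 0 for no effect and ±100 for the full control effect; nearly all actives have a fitted effect of over 55% in size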
Inconclusive results are not listed. Calls of active or inactive are those of the source. Calls follow the shape of the dose curve; as a rule, active = well fitted cell-killing curve with a large enough effect; inconclusive = small, poorly fitted or top-dose-only effect; inactive = flat fitted curve, though single readings scatter.
outcome-measure: outcome

compound=CN(C)C(=O)Nc1ccc(Cl)cc1 outcome_measure=outcome assay_result=inactive
compound=ClP(Cl)(Cl)(Cl)Cl outcome_measure=outcome assay_result=inactive
compound=Nc1ccc(Cl)c(Cl)c1 outcome_measure=outcome assay_result=inactive
compound=O=[N+]([O-])c1cccc(O)c1 outcome_measure=outcome assay_result=inactive
compound=OCCOCCO outcome_measure=outcome assay_result=inactive

Q) Please give the measured outcome for this compound: Cc1cnc[nH]1
A) inactive

Q) Please give the measured outcome for this compound: O=C(Cc1ccccc1)OCc1ccccc1
A) inactive

Q) Please give the measured outcome for this compound: O=S(=O)(O)F
A) inactive

Q) Please give the measured outcome for this compound: CCOC(=O)CBr
A) inactive

Q) Please give the measured outcome for this compound: CCN(N=O)C(N)=O
A) inactive

Q) Please give the measured outcome for this compound: O=c1ccc(=O)[nH][nH]1
A) inactive

Q) Please give the measured outcome for this compound: CNC(=O)O/N=C/C(C)(C)S(C)=O (configuration not stated)
A) inactive

Q) Please give the measured outcome for this compound: CCCCOC(C)=O
A) inactive

Q) Please give the measured outcome for this compound: CCCCNC(=O)n1c(NC(=O)OC)nc2ccccc21
A) inactive

Q) Please give the measured outcome for this compound: Cc1ccc(N=C=O)cc1N=C=O
A) inactive

Q) Please give the measured outcome for this compound: CCC#N
A) inactive

Q) Please give the measured outcome for this compound: C(CCOCC1CO1)COCC1CO1 (configuration not stated)
A) inactive

Q) Please give the measured outcome for this compound: BrCCc1ccccc1
A) inactive

Q) Please give the measured outcome for this compound: Cc1ccc(N)cc1Cl
A) inactive

Q) Please give the measured outcome for this compound: O=C(O)C(Cl)(Cl)Br
A) inactive

* * *

biological target: Retinoic acid receptor RXR-alpha (Homo sapiens); assay: qHTS assay for small molecule agonists of retinoid X receptor alpha signaling (AID 588544); details: HEK293T RXRa-UAS-bla, beta-lactamase reporter, 18 h; series mostly up to 76.7 µM;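 also: 0% = DMSO basal wells and 100% = reference agonist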
Results filed as inconclusive are left out. Active and inactive are the calls of the source. The call rests on the fitted dose curve.
outcome-measure: outcome

Observe how each entry below is paired with its result.
molecule=Oc1ccc(Cl)c(Cl)c1Cl outcome_measure=outcome assay_result=inactive
molecule=O=C(O)CCl outcome_measure=outcome assay_result=inactive
molecule=CC(C)C#N outcome_measure=outcome assay_result=inactive
molecule=Oc1c(Cl)cccc1Cl outcome_measure=outcome assay_result=inactive
molecule=O=C(Cl)OCc1ccccc1 outcome_measure=outcome assay_result=inactive

Q) Please give the measured outcome for this molecule: [O-][Cl+2]([O-])O
A) inactive

Q) Please give the measured outcome for this molecule: N#CCBr
A) inactive

Q) Please give the measured outcome for this molecule: NC1CCC(CC2CCC(N)CC2)CC1 (centres undefined)
A) inactive

Q) Please give the measured outcome for this molecule: CNC(=O)O/N=C/C(C)(C)S(C)=O (centres undefined)
A) inactive

Q) Please give the measured outcome for this molecule: ClCCBr
A) inactive

Q) Please give the measured outcome for this molecule: S=c1[nH]c2ccccc2[nH]1
A) inactive

Q) Please give the measured outcome for this molecule: CCSC(=O)N1CCCCCC1
A) inactive

Q) Please give the measured outcome for this molecule: c1ccc2c(c1)CCNC2
A) inactive

Q) Please give the measured outcome for this molecule: CN(C)c1ccc(N(C)C)cc1
A) inactive

* * *

target: Glucocorticoid receptor (Homo sapiens) (UniProt P04150); test: qHTS assay for small molecule agonists of glucocorticoid receptor signaling (AID 588532); conditions: HeLa MMTV-bla, beta-lactamase ratio, agonist, 18 h; hits give high values; percent of dexamethasone control, DMSO zero;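 also: 100% = dexamethasone at 0.1 µM and 0% = DMSO only wells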
Sequence (P04150 whole entry, looked up): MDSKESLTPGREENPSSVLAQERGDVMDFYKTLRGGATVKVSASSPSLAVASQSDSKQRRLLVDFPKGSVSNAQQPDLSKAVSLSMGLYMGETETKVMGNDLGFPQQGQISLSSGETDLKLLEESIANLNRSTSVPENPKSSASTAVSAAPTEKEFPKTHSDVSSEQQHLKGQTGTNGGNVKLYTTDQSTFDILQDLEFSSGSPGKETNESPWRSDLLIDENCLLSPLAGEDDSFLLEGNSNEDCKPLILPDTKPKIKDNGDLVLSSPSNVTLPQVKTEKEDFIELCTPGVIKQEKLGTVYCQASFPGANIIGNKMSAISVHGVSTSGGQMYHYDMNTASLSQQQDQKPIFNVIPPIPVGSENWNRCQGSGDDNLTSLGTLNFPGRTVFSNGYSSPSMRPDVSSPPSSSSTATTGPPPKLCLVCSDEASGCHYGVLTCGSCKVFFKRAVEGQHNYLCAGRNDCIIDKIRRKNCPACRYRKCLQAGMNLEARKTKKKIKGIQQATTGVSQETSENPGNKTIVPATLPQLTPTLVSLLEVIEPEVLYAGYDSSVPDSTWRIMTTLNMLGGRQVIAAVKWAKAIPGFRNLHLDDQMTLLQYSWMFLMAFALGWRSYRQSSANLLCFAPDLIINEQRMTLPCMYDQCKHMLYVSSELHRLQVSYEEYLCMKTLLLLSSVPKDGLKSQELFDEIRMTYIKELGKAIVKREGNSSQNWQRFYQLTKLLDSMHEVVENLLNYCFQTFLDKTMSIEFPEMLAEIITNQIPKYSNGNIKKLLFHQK
Results filed as inconclusive are left out.
outcome-measure: activation (%)
All answers are understood in %, so give the number only.

Observe how each entry below is paired with its result.
compound=Cl/C=C\Cl outcome_measure=activation unit=% assay_result=16.7
compound=C=CCCC#N outcome_measure=activation unit=% assay_result=-1.36
compound="N#CC(O)c1ccccc1 (stereo not given)" outcome_measure=activation unit=% assay_result=-0.987
compound=NNC(N)=S outcome_measure=activation unit=% assay_result=0.137
compound=N#CCBr outcome_measure=activation unit=% assay_result=-5.38
compound=C=CCBr outcome_measure=activation unit=% assay_result=0.974

Q) Please give the measured activation for this compound: CCCCNC(=O)n1c(NC(=O)OC)nc2ccccc21
A) -10.9

Q) Please give the measured activation for this compound: c1ccc(OCC2CO2)cc1 (stereo not given)
A) -7.97

Q) Please give the measured activation for this compound: OCC(Cl)CCl (stereo not given)
A) 11.4

Q) Please give the measured activation for this compound: CC[N+](=O)[O-]
A) 5.8

* * *

experiment: qHTS assay for small molecule activators of the p53 signaling pathway (AID 651743); conditions: HCT-116 p53RE-bla, beta-lactamase FRET ratio, 16 h; hits give high values; also: % of control where 0% means no effect
Inconclusive results are not listed.
activation values for the compounds below.
All answers are understood in %, so give the number only.

Observe how each entry below is paired with its result.
chemical_structure=[O-][Cl+2]([O-])O assay_result=0.222
chemical_structure=Nc1ncc([N+](=O)[O-])s1 assay_result=-4.14
chemical_structure=CCCCCCCCCCCCCl assay_result=-1.06

Q) Please give the measured activation for this compound: C=CCO
A) -1.01

Q) Please give the measured activation for this compound: COC(=O)c1ccccc1N
A) -1.42

Q) Please give the measured activation for this compound: ClP(Cl)(Cl)(Cl)Cl
A) -1.29

Q) Please give the measured activation for this compound: OCCCCO
A) -4.12

Q) Please give the measured activation for this compound: [N-]=[N+]=[N-]
A) -1.87

Q) Please give the measured activation for this compound: CCCCC#N
A) -7.46

Q) Please give the measured activation for this compound: C=CC#N
A) -2.66

* * *

experiment: Cell Viability - LYMP2-022 (AID 987); conditions: LYMP2-022 lymphoblastoid cell viability; series mostly up to 92.2 µM;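 also: cells exposed to compound for 24 hr; nearly all actives have a fitted effect of over 55% in size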
Records with an inconclusive call do not appear. Activity calls are given as the source filed them. Calls follow the shape of the dose curve; as a rule, active = well fitted cell-killing curve with a large enough effect; inconclusive = small, poorly fitted or top-dose-only effect; inactive = flat fitted curve, though single readings scatter.
Select the correct class. Options are 1.0 (active), 0.0 (inactive) and nothing else.

molecule=ClCCOCCCl group_label=0.0

Q) What was the test verdict on c1ccc(N=NNc2ccccc2)cc1 ?
A) 0.0

Q) What was the test verdict on CN1CSC(=S)N(C)C1 ?
A) 1.0

Q) What was the test verdict on CCC#N ?
A) 0.0

Q) What was the test verdict on CN=C=O ?
A) 0.0

Q) What was the test verdict on CC(C)(C)OOC(=O)c1ccccc1 ?
A) 0.0

Q) What was the test verdict on CC(Cl)CCl (stereo not drawn) ?
A) 0.0

Q) What was the test verdict on CCCCCCCCCCCCCl ?
A) 0.0

Q) What was the test verdict on Oc1cc(Cl)cc(Cl)c1 ?
A) 0.0

Q) What was the test verdict on CCCCOC(=O)c1ccccc1N ?
A) 0.0

Q) What was the test verdict on COc1ccccc1N ?
A) 0.0

Q) What was the test verdict on Cc1cc(-c2cc(C)c(N)c(C)c2)cc(C)c1N ?
A) 0.0

Q) What was the test verdict on ClCC(Cl)Cl ?
A) 0.0

* * *

activity change % (negative = inhibition) values for the compounds below.
target: Thyroid hormone receptor beta (Homo sapiens); assay: qHTS assay for small molecule antagonists of thyroid hormone receptor beta signaling (AID 588547); settings: TR-UAS-bla HEK293, beta-lactamase ratio, antagonist mode, 18 h;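 also: cells stimulated with 0.4 nM T3 agonist during compound exposure; % is scaled to controls: 0 for no effect and ±100 for the full control effect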
Results filed as inconclusive are left out. Calls of active or inactive are those of the source. Calls come from the whole dose curve; as a rule, active = well fitted inhibition curve with a large enough effect in the signal ratio, with a control signal flat (not every such curve was filed as active); inconclusive = small, poorly fitted or top-dose-only effect, or effect the other way, or a change in a side signal; inactive = flat fitted curve, though single readings scatter; the % refers to the signal ratio.

Observe how each entry below is paired with its result.
compound=CN(C)N=O assay_result="11.5% (inactive)"
compound=C=C(C)CCl assay_result="-0.864% (inactive)"
compound=C=CCCC#N assay_result="9.59% (inactive)"
compound=ClC(Br)Br assay_result="16% (inactive)"
compound=CCNCC assay_result="15.3% (inactive)"

Q) Recorded activity change % (negative = inhibition) for N#CCc1ccccc1 with Thyroid hormone receptor beta (Homo sapiens), please?
A) 23.1% (inactive)

Q) Recorded activity change % (negative = inhibition) for Cc1ccc2c(c1N)C(=O)c1ccccc1C2=O with Thyroid hormone receptor beta (Homo sapiens), please?
A) 1.36% (inactive)

Q) Recorded activity change % (negative = inhibition) for Cc1cccc(C)c1N with Thyroid hormone receptor beta (Homo sapiens), please?
A) -2.91% (inactive)

Q) Recorded activity change % (negative = inhibition) for CCN(CC)CCO with Thyroid hormone receptor beta (Homo sapiens), please?
A) -7.98% (inactive)

Q) Recorded activity change % (negative = inhibition) for NC1CCC(CC2CCC(N)CC2)CC1 (configuration not stated) with Thyroid hormone receptor beta (Homo sapiens), please?
A) 7.19% (inactive)

Q) Recorded activity change % (negative = inhibition) for O=[N+]([O-])c1ccccc1-c1ccccc1 with Thyroid hormone receptor beta (Homo sapiens), please?
A) -0.648% (inactive)

* * *

target: Mitogen-activated protein kinase 10 (Mus musculus); assay: JNK3 AlphaScreen Assay (AID 530); conditions: JNK3 lysate, c-Jun phosphorylation; series mostly up to 57.1 µM;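 also: kinase came from lysate of stimulated human HepG2 cells; signal reports phosphorylation of biotinylated GST-cJun 1-79 at Ser73 with 10 µM ATP; % is scaled to controls: 0 for no effect and ±100 for the full control effect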
Records with an inconclusive call do not appear. Active and inactive are the calls of the source. Calls follow the shape of the dose curve; as a rule, active = well fitted curve in either direction with a large enough effect (not every such curve was filed as active); inconclusive = small, poorly fitted or top-dose-only effect, or another doubt; inactive = flat fitted curve, though single readings scatter.
outcome-measure: activity change, negative = inhibition

Observe how each entry below is paired with its result.
molecule=N=C(N)n1cc(/C=N\N=C(N)N)cn1 outcome_measure="activity change, negative = inhibition" assay_result="6.38% [at 11.4 µM] (inactive)"
molecule=C[C@@]12CC[C@H]3[C@@H](CCC4=C(O)C(=O)CC[C@]43C)[C@H]1CCC2=O outcome_measure="activity change, negative = inhibition" assay_result=inactive
molecule="CCCCOCC1CO1 (stereo not given)" outcome_measure="activity change, negative = inhibition" assay_result=inactive
molecule=[N-]=[N+]=CC(=O)CC[C@H](N)C(=O)O outcome_measure="activity change, negative = inhibition" assay_result="31.7% [at 11.4 µM] (inactive)"
molecule=O=C(O)CN1C(=O)CN=C(c2ccccn2)c2cc(Cl)ccc21 outcome_measure="activity change, negative = inhibition" assay_result="3.65% [at 11.4 µM] (inactive)"

Q) Please give the measured activity change, negative = inhibition for this molecule: CCN(N=O)C(N)=O
A) inactive

Q) Please give the measured activity change, negative = inhibition for this molecule: ClCCOCOCCCl
A) inactive

Q) Please give the measured activity change, negative = inhibition for this molecule: O=C(NCP(=O)(O)O)c1cccnc1
A) 0.703% [at 11.4 µM] (inactive)

Q) Please give the measured activity change, negative = inhibition for this molecule: Cc1ccc(N)c(C)c1
A) inactive
